In this section we review reported IC50 values for a set of molecules.
- assayed-system: human recombinant CRF-1 receptor (Homo sapiens)
- method-summary: CRF-1 receptor antagonism, HTRF cAMP assay in CHO cells in the presence of 1 nM CRF
- condition-description: CHO cells expressing human recombinant CRF-1; inhibition of the effect of 1 nM CRF on cAMP
# number only, unit nM dropped from output

Worked cases, IC50 given:
O=C(N[C@H]1CC[C@@H](CNc2cc(-c3ccc(F)cc3)n[nH]2)CC1)c1cc(C(F)(F)F)ccc1Cl :: 3230
O=C(N[C@H]1CC[C@H](CNc2ccccc2)CC1)c1cc(C(F)(F)F)ccc1Cl :: 50
O=C(N[C@H]1CC[C@H](CNc2n[nH]c3c2CCCC3)CC1)c1cc(C(F)(F)F)ccc1Cl :: 31

Now consider the entry below.
IC50 for human recombinant CRF-1 receptor (Homo sapiens) with input COc1ccc2c(NC[C@H]3CC[C@H](NC(=O)c4cc(C(F)(F)F)ccc4Cl)CC3)n[nH]c2c1 equals 32

====

- assayed-system: human recombinant CRF-1 receptor (Homo sapiens, UniProt P34998)
- method-summary: CRF-1 receptor antagonism, HTRF cAMP assay in CHO cells in the presence of 1 nM CRF
- condition-description: CHO cells expressing human recombinant CRF-1; inhibition of the effect of 1 nM CRF on cAMP
property-name: IC50
Record the result as a number with its unit.

Worked cases, IC50 given:
O=C(N[C@H]1CC[C@H](CNc2n[nH]c3ncccc23)CC1)c1cc(C(F)(F)F)ccc1Cl :: 88 nM
O=C(N[C@H]1CC[C@H](CNc2cc(C3CC3)n[nH]2)CC1)c1cc(C(F)(F)F)ccc1Cl :: 47 nM
Cc1cc(C)nc(NC[C@H]2CC[C@H](NC(=O)c3cc(C(F)(F)F)ccc3Cl)CC2)c1 :: 215 nM

Entry Cc1n[nH]c(NC[C@H]2CC[C@H](NC(=O)c3cc(C(F)(F)F)ccc3Cl)CC2)c1-c1ccccc1 — recorded IC50 = 140 nM

====

- assayed-system: human recombinant CRF-1 receptor (Homo sapiens, UniProt P34998)
- Sequence (P34998 24-415): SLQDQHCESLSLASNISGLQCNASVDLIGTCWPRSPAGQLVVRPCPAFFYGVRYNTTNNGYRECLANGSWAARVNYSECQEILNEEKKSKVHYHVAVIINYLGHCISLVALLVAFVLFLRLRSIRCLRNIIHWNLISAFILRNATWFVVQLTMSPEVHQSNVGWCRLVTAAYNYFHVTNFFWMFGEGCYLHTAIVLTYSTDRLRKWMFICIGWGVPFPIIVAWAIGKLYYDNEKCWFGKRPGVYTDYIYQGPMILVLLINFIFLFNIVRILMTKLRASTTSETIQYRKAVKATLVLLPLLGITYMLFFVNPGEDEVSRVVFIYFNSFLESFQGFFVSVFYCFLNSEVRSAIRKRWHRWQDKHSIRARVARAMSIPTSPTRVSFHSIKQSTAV
- method-summary: CRF-1 receptor antagonism, HTRF cAMP assay in CHO cells in the presence of 1 nM CRF
- condition-description: CHO cells expressing human recombinant CRF-1; inhibition of the effect of 1 nM CRF on cAMP
- Excerpt: The CRF-1 or CRF-2α receptor antagonistic activity of the agents of the invention has been determined in vitro in the following assay: […]
property-name: pIC50
Field pIC50 (float): negative decimal logarithm of the concentration in molar.

Cc1cc(NC[C@H]2CC[C@H](NC(=O)c3cc(C(F)(F)F)ccc3Cl)CC2)ncc1Cl :: 7.66
Cn1cc(-c2ccccc2)c(NC[C@H]2CC[C@H](NC(=O)c3cc(C(F)(F)F)ccc3Cl)CC2)n1 :: 7.16
CCCc1[nH]nc(NC[C@H]2CC[C@H](NC(=O)c3cc(C(F)(F)F)ccc3Cl)CC2)c1Br :: 7.11
COc1ccc(Cl)c(NC[C@H]2CC[C@H](NC(=O)c3cc(C(F)(F)F)ccc3Cl)CC2)n1 :: 7.28
O=C(N[C@H]1CC[C@H](Cn2ncc3ccccc32)CC1)c1cc(C(F)(F)F)ccc1Cl :: 6.94

Entry Cc1ncc(Cl)cc1C(=O)N[C@H]1CC[C@H](CNc2cc(C(F)(F)F)n[nH]2)CC1 — recorded pIC50 = 6.93

Entry Cc1ccc(NC[C@H]2CC[C@H](NC(=O)c3cc(C(F)(F)F)ccc3Cl)CC2)nc1 — recorded pIC50 = 7.18

FYI, the data here is from patent US8273900B2.
